- TARGET UNDER TEST: CDK1/Cyclin B1 (Homo sapiens, UniProt P06493)
- Sequence (P06493 whole entry): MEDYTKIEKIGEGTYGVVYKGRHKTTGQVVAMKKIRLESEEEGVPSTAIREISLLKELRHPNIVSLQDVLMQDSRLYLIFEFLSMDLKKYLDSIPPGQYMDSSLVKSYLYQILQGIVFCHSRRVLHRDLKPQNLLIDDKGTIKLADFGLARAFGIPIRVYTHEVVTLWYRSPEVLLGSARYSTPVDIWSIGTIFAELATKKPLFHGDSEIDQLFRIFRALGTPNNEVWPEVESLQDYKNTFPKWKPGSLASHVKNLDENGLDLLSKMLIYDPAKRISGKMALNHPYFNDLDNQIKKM
- Sequence (P14635 whole entry partner): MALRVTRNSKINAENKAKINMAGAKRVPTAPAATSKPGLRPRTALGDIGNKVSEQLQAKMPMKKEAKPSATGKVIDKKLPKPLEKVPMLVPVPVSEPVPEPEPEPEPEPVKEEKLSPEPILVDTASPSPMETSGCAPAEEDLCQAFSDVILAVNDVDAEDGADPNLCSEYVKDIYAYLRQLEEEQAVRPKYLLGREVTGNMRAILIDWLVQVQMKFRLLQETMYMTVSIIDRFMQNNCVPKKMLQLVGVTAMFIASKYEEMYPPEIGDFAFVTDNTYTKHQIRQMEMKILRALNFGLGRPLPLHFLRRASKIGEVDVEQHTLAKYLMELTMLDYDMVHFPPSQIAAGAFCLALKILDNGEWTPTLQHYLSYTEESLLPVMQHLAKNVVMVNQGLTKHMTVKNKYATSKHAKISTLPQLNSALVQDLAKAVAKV
- MEASUREMENT DESCRIPTION: CDK1/Cyclin B1 Biochemical Assay (TR-FRET), 0.015 mM ATP
- CONDITION SET: 0.15 μM Rb (Ser780)-biotin substrate, pH7.0, 60 min preincubation, 120 min reaction, room temperature
pIC50: −log10 of the molar value.
OBSERVATION TYPE: pIC50

CC[C@H](C)NC(=O)O[C@H]1CC[C@@H](c2cc(Nc3cc4c(cc3F)NS(=O)(=O)C4)n[nH]2)C1 (relative stereo) [Example 294]; 6.44
CC(C)NC(=O)O[C@H]1CC[C@@H](c2cc(Nc3ccc4c(c3F)CS(=O)(=O)N4)n[nH]2)C1 (single isomer, unassigned) [Example 251b]; 7.51
Cc1cc2c(cc1Nc1cc([C@@H]3CC[C@H](OC(=O)NC(C)C)C3)[nH]n1)CS(=O)(=O)N2 (relative stereo) [Example 241]; 5.35
CC(C)NC(=O)O[C@H]1CC[C@@H](c2cc(Nc3ccc4c(c3)CS(=O)(=O)N4C)n[nH]2)C1 (single isomer, unassigned) [Example 220b]; 7.46
CC(C)NC(=O)O[C@H]1CC[C@@H](c2cc(Nc3ccc4c(c3F)CN(CCCN(C)C)S4(=O)=O)n[nH]2)C1 (relative stereo) [Example 73]; 6.23
CC1NS(=O)(=O)c2ccc(Nc3cc([C@@H]4CC[C@H](OC(=O)NC5(C)CC5)C4)[nH]n3)c(F)c21 (single isomer, unassigned) [Example 52d]; 7.25

A: CC(C)NC(=O)O[C@@H]1CC[C@H](c2cc(Nc3ccc4c(c3)NS(=O)(=O)C4)n[nH]2)C1 (stereo in doubt) [Example 303a]
B: COCC(C)(C)NC(=O)O[C@H]1CC[C@@H](c2cc(Nc3ccc4c(c3F)CN(C)S4(=O)=O)n[nH]2)C1 (relative stereo) [Example 379]
C: CC(C)NC(=O)O[C@H]1CC[C@@H](c2cc(Nc3ccc4c(c3F)CN(C3CCN(S(C)(=O)=O)CC3)S4(=O)=O)n[nH]2)C1 (relative stereo) [Example 77]
Sort ascending by pIC50. Please list the labels in the order you were asked to rank them.
C, B, A

I: CN1c2ccc(Nc3cc([C@@H]4CC[C@H](OC(=O)NC5(C)COC5)C4)[nH]n3)cc2CS1(=O)=O (relative stereo) [Example 234]
II: CCCNC(=O)O[C@H]1CC[C@@H](c2cc(Nc3ccc4c(c3F)CS(=O)(=O)N4C)n[nH]2)C1 (single isomer, unassigned) [Example 256a]
I need your help: which of the pair I , II has higher pIC50? Response format: the label of the selected entry.
I

1: CCCNC(=O)O[C@H]1CC[C@@H](c2cc(Nc3cc4c(cc3F)NS(=O)(=O)C4)n[nH]2)C1 (relative stereo) [Example 293]
2: CCCNC(=O)O[C@@H]1CC[C@H](c2cc(Nc3ccc4c(c3F)CS(=O)(=O)N4)n[nH]2)C1 (single isomer, unassigned) [Example 387a]
From the items above, decide which of 1 and 2 has the lower pIC50 reading. Response format: the label of the selected entry.
1
(1: 5.95, 2: 6.86)
